Property: melting point; scope: individual compounds

Would you please look over these solved cases?
COc1ccc(C=O)c2cc(C(=O)O)oc12    264 to 266 °C
O=C1CC(c2ccccc2F)C(=O)N1 (centres undefined)    97 to 99 °C
CC(O)c1ccc(-n2cccn2)cc1 (centres undefined)    92 to 94 °C
Fc1c(Cl)ccc2c(Cl)ccnc12    129 to 131 °C
CN1CCN(S(=O)(=O)c2cccc(N)c2)CC1    140 to 142 °C
Cc1cc(C)n(-c2ccc(CO)cc2)n1    < 17 °C

Consider the compound "COC(=O)Nc1snc(C)c1C(=O)O" and give its recorded melting point.
215 to 217 °C

Consider the compound "Nc1nc(CCl)nc2sc3c(c12)CCCC3" and give its recorded melting point.
174 to 176 °C

Consider the compound "CC(C)(C)OC(=O)N1CCC(C(=O)O)(c2ccccc2)CC1" and give its recorded melting point.
116 to 118 °C

Consider the compound "NC(=O)Nc1cccnc1" and give its recorded melting point.
189 to 191 °C

Consider the compound "COc1ccnc(N)c1" and give its recorded melting point.
99 to 101 °C

====

Property: melting point; scope: individual molecules

Clc1ccc2c(c1)NCCCS2    51 to 53 °C
Cc1ccc(C#N)c(N)n1    169 to 171 °C
c1ccc(OCCc2nc3ccccc3[nH]2)cc1    136 to 138 °C
CC(=O)Nc1ncccc1N    135 to 137 °C
Cc1ccc(CNc2ccc3[nH]c(=O)[nH]c3c2)cc1    271 to 273 °C
O=C(O)c1ccc(NC(=O)C23CC4CC(CC(C4)C2)C3)cc1    284 to 286 °C
Nc1ccc(-c2noc(=O)[nH]2)cc1    198 to 200 °C
Cc1ccccc1OCc1csc(N)n1    95 to 97 °C

Consider the molecule Cc1cc2c(cc1Br)NC(=O)C(C)O2 (centres undefined) and give its recorded melting point.
208 to 210 °C

Consider the molecule "Clc1ncncc1I" and give its recorded melting point.
54 to 56 °C

Consider the molecule "CCOC(=O)c1sc2nc(Cc3ccccn3)[nH]c(=O)c2c1C" and give its recorded melting point.
231 to 233 °C

Consider the molecule "N#Cc1ccc(Nc2cccc(C(=O)O)c2)cc1" and give its recorded melting point.
247 to 249 °C

Consider the molecule c1ccc2cc(C3CO3)ccc2c1 (centres undefined) and give its recorded melting point.
57 to 59 °C

Consider the molecule "Cc1ccc(N(C)S(=O)(=O)c2cccc(C(=O)O)c2)cc1" and give its recorded melting point.
162 to 164 °C

====

Property: melting point; scope: individual compounds

Would you please look over these solved cases?
CN(CC(=O)NC1CC1)C(=O)CCl    113 to 115 °C
CN(C)Cc1ccc(-c2ccccc2C#N)cc1    44 to 46 °C
CCOc1ccc(S(N)(=O)=O)cn1    133 to 135 °C
O=C(CBr)c1sccc1Br    60 to 62 °C
Cc1nn(C)c(Br)c1C#N    109 to 111 °C
NCc1ccnc(N2CCCC2)n1    63 to 65 °C
O=C(NC1CCNCC1)c1ccc(F)cc1    175 to 177 °C
CCOc1ccc(Br)cc1S(N)(=O)=O    143 to 145 °C
CCC(O)CNc1ccccc1 (stereo not given)    48 to 50 °C
O=C(O)c1cccnc1Oc1ccc(F)cc1Br    189 to 191 °C

Consider the compound "CC(C)Cn1cnc(S(N)(=O)=O)c1" and give its recorded melting point.
144 to 146 °C

====

Property: melting point; scope: individual compounds

Would you please look over these solved cases?
CC1CN(c2ccc(N)cc2F)CC(C)O1 (stereo not drawn)    116 to 118 °C
CCOc1cc2nccc(Cl)c2cc1OCC    72 to 74 °C
CCOC(=O)c1csc(Cc2ccc(NC(=O)OC(C)(C)C)cc2)n1    135 to 137 °C
Cc1nc2ccccc2n1C(C(=O)O)C(C)C (stereo not drawn)    119 to 121 °C
Nc1ccc(-n2ncc3ccccc32)cc1    158 to 160 °C

Consider the compound "Cc1csc(=O)n1CCCC(=O)O" and give its recorded melting point.
97 to 99 °C

Consider the compound "O=C(O)Cc1csc(NC(=O)Cc2cccs2)n1" and give its recorded melting point.
200 to 202 °C

Consider the compound CC(Cc1ccc(Cl)cc1Cl)C(=O)O (stereo not drawn) and give its recorded melting point.
49 to 51 °C

Consider the compound "Cc1ccccc1-c1cc(N)on1" and give its recorded melting point.
99 to 101 °C

Consider the compound "O=C(O)CCC(=O)c1ccc2c(c1)CCC2" and give its recorded melting point.
123 to 125 °C

Consider the compound "O=C(O)CCc1c(-c2ccccc2)[nH]c2ccc(F)cc12" and give its recorded melting point.
161 to 163 °C

Consider the compound "Cn1c(C2CC2)nc2c1CCNC2" and give its recorded melting point.
169 to 171 °C

Consider the compound "O=Cc1csc(COc2ccccc2)n1" and give its recorded melting point.
76 to 78 °C

Consider the compound "Cc1ccc(OCc2nc(C=O)cs2)cc1" and give its recorded melting point.
86 to 88 °C

Consider the compound "ClCc1nc2cccnc2s1" and give its recorded melting point.
65 to 67 °C

Consider the compound "Oc1cccc(CNC2CC2)c1" and give its recorded melting point.
125 to 127 °C

Consider the compound "O=Cc1cccc(NC(=O)C(F)(F)F)c1" and give its recorded melting point.
102 to 104 °C

Consider the compound "Nc1cc(-c2ccc(F)cc2)no1" and give its recorded melting point.
100 to 102 °C

====

Property: melting point; scope: individual compounds

Would you please look over these solved cases?
COc1ccc(C(C)C(=O)O)cc1 (stereo not given)    52 to 54 °C
CC(C)c1nc(I)c2ccccn12    84 to 86 °C
CN(C)S(=O)(=O)c1ccc(C(=O)O)cc1    249 to 251 °C
CCCOc1ccc(CNC(=O)CCl)cc1    109 to 111 °C
C/C(=N\O)c1scnc1C    144 to 146 °C
Cc1[nH]n(-c2ccc(Br)cc2)c(=N)c1C    131 to 133 °C
CN1CCC(=O)Nc2cc(Cl)ccc21    138 to 140 °C
Nc1cc(CCc2ccccc2)[nH]n1    58 to 60 °C
NNc1ccc(-n2cccn2)nn1    194 to 196 °C
Nc1ccc(S(=O)(=O)N=C2CCCCCN2)cc1    115 to 117 °C

Consider the compound "CN1CCNc2cccnc21" and give its recorded melting point.
89 to 91 °C

Consider the compound "O=C(CBr)CS(=O)(=O)c1ccccc1" and give its recorded melting point.
96 to 98 °C

Consider the compound "COc1cc2nc(N)sc2cc1OC" and give its recorded melting point.
224 to 226 °C

Consider the compound "Nc1cc(Cl)n[nH]1" and give its recorded melting point.
93 to 95 °C

Consider the compound "O=C(O)c1coc2ccccc12" and give its recorded melting point.
150 to 152 °C

Consider the compound "O=C(O)c1ccc2nccnc2c1" and give its recorded melting point.
233 to 235 °C

Consider the compound "CCOc1nnc(-c2ccccc2)n1-c1ccccc1" and give its recorded melting point.
154 to 156 °C

Consider the compound "CCOC(=O)/C(C#N)=C\Nc1cc(F)cc(F)c1" and give its recorded melting point.
174 to 176 °C

====

Property: melting point; scope: individual compounds

CN(CCO)C(=O)c1ccc(O)cc1    123 to 125 °C
CN1CC(=O)NC(=O)C1    99 to 101 °C
O=C(O)c1cc(S(=O)(=O)Cl)c(Cl)cc1Cl    158 to 162 °C
Nc1cccc(N2C(=O)CC3(CCCC3)C2=O)c1    136 to 138 °C
Nc1ccccc1NC(=O)c1ccccc1I    189 to 191 °C

Consider the compound Cc1cc(C2(C)NC(=O)NC2=O)c(C)o1 (centres undefined) and give its recorded melting point.
144 to 146 °C

Consider the compound "O=C1CCCOc2c1ccc(Cl)c2Cl" and give its recorded melting point.
103 to 105 °C

Consider the compound "CCc1n[nH]c(N)n1" and give its recorded melting point.
154 to 156 °C

Consider the compound O=C1CCC(C(=O)O)CN1 (centres undefined) and give its recorded melting point.
174 to 176 °C

Consider the compound "Cc1ccc(S(=O)(=O)Nc2cccc(Cl)c2)cc1N" and give its recorded melting point.
110 to 112 °C

Consider the compound "Cc1cc2cc[nH]c(=O)c2n1C" and give its recorded melting point.
224 to 226 °C

====

Property: melting point; scope: individual molecules

COc1ccc2c(c1)C(=O)CCC2    55 to 59 °C

Consider the molecule "NC(=S)CCN1CCOC1=O" and give its recorded melting point.
140 to 142 °C

Consider the molecule "O=C(O)c1cccc(S(=O)(=O)N2CCCC2)c1" and give its recorded melting point.
157 to 159 °C

Consider the molecule "CCCn1c(C)cc(/C=C(\C#N)C(=O)O)c1C" and give its recorded melting point.
199 to 201 °C

Consider the molecule "N#CCN(C(=O)c1ccccc1)C1CC1" and give its recorded melting point.
103 to 105 °C

Consider the molecule "COc1ccccc1Nc1nc2sc(C(=O)O)cc2s1" and give its recorded melting point.
235 to 237 °C

Consider the molecule "Cc1cc(C=O)c(C)n1-c1ccc(Cl)cc1" and give its recorded melting point.
123 to 125 °C
